Target: human glucagon receptor (human) (UniProt P47871)
Sequence (P47871 26-477): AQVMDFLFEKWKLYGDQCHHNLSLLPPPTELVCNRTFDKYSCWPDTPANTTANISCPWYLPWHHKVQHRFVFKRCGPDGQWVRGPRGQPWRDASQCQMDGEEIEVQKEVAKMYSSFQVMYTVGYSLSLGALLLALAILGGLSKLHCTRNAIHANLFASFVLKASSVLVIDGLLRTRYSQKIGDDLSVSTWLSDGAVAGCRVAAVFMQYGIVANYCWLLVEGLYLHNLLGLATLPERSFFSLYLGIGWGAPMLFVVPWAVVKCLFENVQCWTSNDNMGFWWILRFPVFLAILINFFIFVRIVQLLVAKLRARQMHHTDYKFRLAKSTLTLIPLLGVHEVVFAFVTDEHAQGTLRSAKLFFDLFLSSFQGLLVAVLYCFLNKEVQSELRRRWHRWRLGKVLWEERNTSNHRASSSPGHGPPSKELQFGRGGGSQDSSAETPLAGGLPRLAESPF
Test: cell-based or functional assay
reported_metric: cAMP Rel EC50, nM (1% HSA) (nM)
One number for each entry, in nM.

Worked cases, answers included:
>  <binder>
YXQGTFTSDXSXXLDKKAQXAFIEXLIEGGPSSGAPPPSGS (Aib, 4Pal, Orn, Me4Pal; acylated lysine; amide; synthetic construct; SITE 2: note = 2-Aminoisobutyric Acid; SITE 10: note = 3-(4-Pyridyl)-L-alanine; SITE 12: note = L-ornithine; SITE 13: note = alpha-methyl-leucine; SITE 17: note = Lysine is chemically modified through conjugation of the epsilon-amino group of the Lysine side chain with (2-[2-(2-) [Example 949]

>  <quantity_unit>
nM

>  <result_number>
317

$$$$
>  <binder>
YXQGTFTSDXSQXLDXKAQXQFIEXLIEGGPSSGAPPPSGSEE (non-natural residues; lipidated Lys AEEA-γGlu-C18 diacid; C-term amide; synthetic construct; SITE 2: note = 2-Aminoisobutyric Acid; SITE 10: note = 3-(4-Pyridyl)-L-alanine; SITE 13: note = alpha-methyl-leucine; SITE 16: note = L-ornithine; SITE 17: note = Lysine is chemically modified through conjugation of the epsilon-amino group of the Lysine side chain with (2-[2-(2-) [Example 1045]

>  <quantity_unit>
nM

>  <result_number>
1540

$$$$
>  <binder>
YXQGTXTSDYSIXLDKKAQXAFIEYLEEGGPSSGAPPPSEG (synthetic construct; SITE 2: note = 2-Aminoisobutyric Acid; SITE 6: note = alpha-methyl-2-fluoro-L-phenylalanine; SITE 13: note = alpha-methyl-leucine; SITE 17: note = Lysine is chemically modified through conjugation of the epsilon-amino group of the Lysine side chain with (2-[2-(2-Amino-ethoxy)-et)) [Example 431]

>  <quantity_unit>
nM

>  <result_number>
352

$$$$
>  <binder>
YXQGTFTSDFSQXLDKKAQXAFIEYLLEAGPSSXAPPPSGT (no C-terminal amide; synthetic construct; SITE 2: note = 2-Aminoisobutyric Acid; SITE 13: note = alpha-methyl-leucine; SITE 17: note = Lysine is chemically modified through conjugation of the epsilon-amino group of the Lysine side chain with (2-[2-(2-Amino-ethoxy)-ethoxy]-acetyl)-(gamma-Glu)-CO-(CH2) 16-CO2H; SITE 20: n) [Example 780]

>  <quantity_unit>
nM

>  <result_number>
1250

$$$$
>  <binder>
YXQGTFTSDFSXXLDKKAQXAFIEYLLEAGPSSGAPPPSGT (not fully specified; acylated; synthetic construct; SITE 2: note = 2-Aminoisobutyric Acid; SITE 12: note = L-ornithine; SITE 13: note = alpha-methyl-leucine; SITE 17: note = Lysine is chemically modified through conjugation of the epsilon-amino group of the Lysine side chain with (gamma-Glu)3-CO-(CH2)16-CO2H; SITE 20: note = 2-Am) [Example 205]

>  <quantity_unit>
nM

>  <result_number>
397

$$$$

Answer for every listed entry: what is its cAMP Rel EC50, nM (1% HSA)? The entries follow.
1. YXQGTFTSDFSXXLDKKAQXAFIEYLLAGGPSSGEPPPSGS (synthetic construct; SITE 2: note = 2-Aminoisobutyric Acid; SITE 12: note = L-ornithine; SITE 13: note = alpha-methyl-leucine; SITE 17: note = Lysine is chemically modified through conjugation of the epsilon-amino group of the Lysine side chain with (2-[2-(2-Amino-ethoxy)-ethoxy]-acetyl)-(gamma-Glu)) [Example 153]
2. YXQGTFTSDXSQXLDXKAQXAFIEYLIAGGPSSGEPPPSGSGE (non-natural residues, acylated Lys; synthetic construct; SITE 2: note = 2-Aminoisobutyric Acid; SITE 10: note = 3-(4-Pyridyl)-L-alanine; SITE 13: note = alpha-methyl-leucine; SITE 16: note = L-ornithine; SITE 17: note = Lysine is chemically modified through conjugation of the epsilon-amino group of the Lysine side chain with (gamma-Gl)) [Example 978]

Result:
1210
824
